Below: a set of entries, each annotated with reported Relative binding affinity.
# TEST SYSTEM: Progesterone receptor (Gallus gallus) (UniProt P07812)
# Sequence (whole entry): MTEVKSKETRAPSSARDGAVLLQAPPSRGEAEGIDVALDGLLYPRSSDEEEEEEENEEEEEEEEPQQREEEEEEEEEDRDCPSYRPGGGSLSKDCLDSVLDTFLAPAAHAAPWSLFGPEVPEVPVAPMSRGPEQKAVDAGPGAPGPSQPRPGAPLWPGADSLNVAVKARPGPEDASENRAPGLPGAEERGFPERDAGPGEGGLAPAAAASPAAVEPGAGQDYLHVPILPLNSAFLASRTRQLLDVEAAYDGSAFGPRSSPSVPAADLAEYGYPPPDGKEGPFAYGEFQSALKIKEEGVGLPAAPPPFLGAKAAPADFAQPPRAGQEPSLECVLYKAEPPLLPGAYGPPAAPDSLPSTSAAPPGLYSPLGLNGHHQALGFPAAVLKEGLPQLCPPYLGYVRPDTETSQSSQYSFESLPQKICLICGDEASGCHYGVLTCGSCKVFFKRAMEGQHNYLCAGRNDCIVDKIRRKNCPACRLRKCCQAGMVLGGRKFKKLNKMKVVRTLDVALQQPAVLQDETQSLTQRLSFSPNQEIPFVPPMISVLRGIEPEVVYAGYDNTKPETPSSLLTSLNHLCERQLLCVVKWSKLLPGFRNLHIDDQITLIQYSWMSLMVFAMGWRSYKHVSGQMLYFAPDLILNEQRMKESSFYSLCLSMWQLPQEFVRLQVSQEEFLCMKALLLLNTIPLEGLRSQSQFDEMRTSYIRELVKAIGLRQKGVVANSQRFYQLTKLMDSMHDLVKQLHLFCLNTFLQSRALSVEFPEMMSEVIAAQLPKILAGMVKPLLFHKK
# MEASUREMENT NOTES: In vitro displacement of progesterone from oviduct progesterone receptor relative to progesterone
Respond with the bare value in %.

INSERT INTO results (molecule, output_unit, observed_measurement) VALUES
  ('C#C[C@@H](O)C12CCCC1C1CCC3=CC(=O)CC[C@@H]3C1CC2.C#C[C@H](O)C12CCCC1C1CCC3=CC(=O)CC[C@@H]3C1CC2 (stereo partly specified)', '%', 3.1);

[ask] Param readout = Relative binding affinity; param system = Progesterone receptor (Gallus gallus) (UniProt P07812); param query = C#C[C@]1(O)CC[C@H]2[C@@H]3CCC4=CC(=O)CC[C@@H]4[C@H]3CC[C@@]21C [NORETHINDRONE] ; response: value
[reply] 350

[ask] Param readout = Relative binding affinity; param system = Progesterone receptor (Gallus gallus) (UniProt P07812); param query = CC(=O)C[C@@]12CCC[C@H]1[C@@H]1CCC3=CC(=O)CC[C@@H]3[C@H]1CC2 ; response: value
[reply] 2

Every entry's value here was drawn from ChEMBL document CHEMBL1122719.
